Data provenance: the supplement of paper PMC7125110

B1: glmS ribozyme (parent)
chain: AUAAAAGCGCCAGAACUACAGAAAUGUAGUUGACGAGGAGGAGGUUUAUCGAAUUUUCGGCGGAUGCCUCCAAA

Variants of: B1
Experiment Description: self-cleavage kobs at 640 uM GlcN6P; higher = faster cleavage; RNA array
Experimental Conditions: with glucosamine-6-phosphate
Variants at the floor of the assay were thinned out.
Measured self-cleavage kobs at 640 uM GlcN6P by item

{"columns": ["Record Sequence", "self-cleavage kobs at 640 uM GlcN6P"],
 "data": [
  ["AUAAAAGCGCAAGAACUACAGAAAUGUAGUUGACGAGGAGGAGGUUUAUCGAAAGUUCGGCGUAGGCCUCCAAA", "< 1e-05 s⁻¹"]
]}

Pending variant:
Look up and report measured self-cleavage kobs at 640 uM GlcN6P for this entry: AUAAAAGCGCCGGUACUACAGAAAUGUAGUUGACGAGGAGGUGGUUUAUCGAAAUUUCGGCGGAUGCCUGCAAA < 1e-05 s⁻¹
